# maps each entry to its melting point
# value in °C; strip the unit string

Below: 4 compounds and their reported melting point.
> print(dat)
                               recordsmiles  unitspec  datavalue
1  ClC(Cl)=CCON=Cc1ccc(COc2c(Cl)cc(OCC=C(Br)Br)cc2Cl)cc1        °C       88.2
2    ON=CCOCCCCOc1c(Cl)cc(OCC=C(Cl)Cl)cc1Cl        °C       62.8
3    CCON=C(C)COc1c(Cl)cc(OCC=C(Cl)Cl)cc1Cl        °C       65.4
4  ON=Cc1ccc(OCCCCCOc2c(Cl)cc(OCC=C(Cl)Cl)cc2Cl)cc1        °C       90.1

Proceed to the following item.
Fill in the blank: the reported melting point of `CON=Cc1ccc(COc2c(Cl)cc(OCC=C(Cl)Cl)cc2Cl)cc1` is ____.
95.9

----------
readoutType: melting point (°C)
# value in °C; strip the unit string

> print(dat)
                               recordsmiles  unitspec  datavalue
1  ClC(Cl)=CCOc1cc(Cl)c(OCc2ccc(C=NOCc3ccccc3)cc2)c(Cl)c1        °C       70.3
2  CC(=NOCCCCCOc1c(Cl)cc(OCC=C(Cl)Cl)cc1Cl)c1ccc(Cl)nc1        °C       67.7

Fill in the blank: the reported melting point of `CCON=Cc1ccc(COc2c(Cl)cc(OCC=C(Cl)Cl)cc2Cl)cc1` is ____.
84.8

Lookup `O=[N+]([O-])c1ccc(ON=CCCCCOc2c(Cl)cc(OCC=C(Cl)Cl)cc2Cl)c([N+](=O)[O-])c1`
65.2

Lookup `ClC(Cl)=CCON=CCOc1ccc(COc2c(Cl)cc(OCC=C(Cl)Cl)cc2Cl)cc1`
87.9

----------
# maps each entry to its mortality at 500 µg/mL
# Tested on: Spodoptera litura
# assayNotes: Insecticidal test against Spodoptera litura
# Type: in vivo
# conditionLabel: 144 h, 500 ppm water dilution, 2 ml absorbed in 13 g artificial diet, fourth-instar larvae, after 6 days

> print(dat)
                                   molecule  datavalue
1  CC(COCCCCCOc1c(Cl)cc(OCC=C(Cl)Cl)cc1Cl)=NOC(C)(C)C      ≥ 80%
2  ClC(Cl)=CCON=CCOCCCCCCOc1c(Cl)cc(OCC=C(Cl)Cl)cc1Cl      ≥ 80%
3  ClC(Cl)=CCON=CCOCCCOc1c(Cl)cc(OCC=C(Cl)Cl)cc1Cl      ≥ 80%

Proceed to the following item.
Fill in the blank: the reported mortality at 500 µg/mL of CC(C)CCON=Cc1ccc(Oc2ccccc2)cc1 [(B), reference compound] is ____.
0%

Where do the numbers come from? From patent US6437184B1.
